assay: Pharmacokinetic study of lipids in plasma, liver and spleen (compound 18, compound 25, MC3); settings: male, Sprague-Dawley, rat, plasma, iv
metric-name: Cmax (ng/mL)
Give bare numbers, in ng/mL.

Recorded Cmax of CCCCCC=CCC=CCCCCCCCCC(CCCCCCCCC=CCC=CCCCCC)OC(=O)CCCN(C)C (stereo not shown) [MC3, reference compound] , please.
28900

###

assay: Clinical chemistry and hematology in rat 48 h after intravenous 2 mpk dose; assay type: in vivo; conditions: 48 h post dose
Concentration, Aspartate aminotransferase strictly less than 100 = Satisfied. Otherwise Not satisfied.

Lab note: confirm whether the reported Concentration, Aspartate aminotransferase for this compound is below 100, equality not counting. compound: CCCCCC=CCC=CCCCCCCCCC(CCCCCCCCC=CCC=CCCCCC)OC(=O)CCCN(C)C (centres unmarked) [MC3, reference compound]
Not satisfied

Report whether reported Concentration, Aspartate aminotransferase is lower than 100 (strictly) for "CCCCCC/C=C\COC(=O)CCCCCCCN(CCO)CCCCCCCC(=O)OC(CCCCCCCC)CCCCCCCC"
Satisfied

Please indicate whether the reported Concentration, Aspartate aminotransferase of "CCCCCCCCCCCOC(=O)CCCCCN(CCO)CCCCCCCC(=O)OC(CCCCCCCC)CCCCCCCC" is strictly below 100.
Not satisfied

Bench note: check whether "CCCCCCCCCOC(=O)CCCCCCCN(CCO)CCCCCCCOC(=O)C(CCCCCCCC)CCCCCCCC" shows Concentration, Aspartate aminotransferase below 100
Satisfied

Answer whether the compound "CCCCCCCCCN(CCO)CCCCCCCC(=O)OC(CCCCCCCC)CCCCCCCC" has Concentration, Aspartate aminotransferase strictly less than 100
Satisfied
